# PROTOCOL_DESCRIPTION: Thermodynamic solubility of the compound in 0.1 M phosphate buffer at pH 7.4 after 24 hrs
# Assay type: physicochemical
# CONDITION_DETAILS: read-out: Therm_solubility
Collected solubility thermodynamic at 24 h values appear next to each entry.

Consider the reported solubility thermodynamic at 24 h for these compounds:
CC(C)CN1[C@H](c2ccc(/C=C/C(=O)O)cc2)c2[nH]c3ccccc3c2C[C@H]1C
> 1000 µM
O=C(O)CCN1CCc2c([nH]c3ccccc23)C1c1ccc(Cl)cc1 (racemic)
> 1600 µM

Please look at the following compound next.
Item C[C@H](CO)CN1[C@H](c2ccc(/C=C/C(=O)O)cc2)c2[nH]c3ccccc3c2C[C@H]1C has what recorded solubility thermodynamic at 24 h?
> 1400 µM
